Where these numbers come from: ChEMBL document CHEMBL1155925

system name: Coagulation factor X (Homo sapiens, UniProt P00742)
Sequence (P00742 41-179 limits assumed): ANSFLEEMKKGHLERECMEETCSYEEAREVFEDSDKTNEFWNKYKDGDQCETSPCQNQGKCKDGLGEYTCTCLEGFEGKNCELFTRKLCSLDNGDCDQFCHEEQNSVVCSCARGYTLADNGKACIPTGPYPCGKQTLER
Sequence (P00742 235-488 limits assumed): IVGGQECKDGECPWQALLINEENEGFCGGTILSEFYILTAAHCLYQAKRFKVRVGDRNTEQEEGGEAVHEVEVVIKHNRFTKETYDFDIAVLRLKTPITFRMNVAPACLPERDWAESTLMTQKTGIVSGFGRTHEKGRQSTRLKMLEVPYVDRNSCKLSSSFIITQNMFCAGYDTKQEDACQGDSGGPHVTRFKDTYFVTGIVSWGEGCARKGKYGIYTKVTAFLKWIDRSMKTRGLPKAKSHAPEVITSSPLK
Exam item: assign 1 (yes) to entries whose IC50 is below 400 nM and 0 (no) to entries at or above 400 nM. Note that a value of exactly 400 nM receives 0 (no).

Previously resolved entries follow.
smiles text	classification
Cc1cccc(NC(=N[C@H]2CCCCN(CC(=O)N3CCCC3)C2=O)NC(=O)c2ccc(N(C)C)cc2)c1	0 (no)
COc1ccc(C(=O)NC(=N[C@H]2CCCCN(CC(=O)N3CCCC3)C2=O)Nc2cccc(C)c2)cc1	0 (no)
Cc1cc2cc(N/C(=N\C(=O)c3sc(C)nc3C)N[C@H]3CCCCN(CC(=O)N4CCCC4)C3=O)ccc2o1	1 (yes)
Cc1cccc(N/C(=N\C(=O)c2sc(C)nc2C)N[C@H]2CCCCN(CC(=O)N3CCCC3)C2=O)c1	0 (no)
COc1ccc(N/C(=N\C(=O)c2sc(C)nc2C)N[C@H]2CCCCN(CC(=O)N3CCCC3)C2=O)cc1	1 (yes)
Cc1cccc(N/C(=N\C(=O)c2ccc(F)cc2)N[C@H]2CCCCN(CC(=O)N3CCCC3)C2=O)c1	1 (yes)
COc1ccc(NC(=N[C@H]2CCCCN(CC(=O)N3CCCC3)C2=O)NC(=O)c2cc(OC)cc(OC)c2)cc1	0 (no)
Cc1cccc(N/C(=N\C(=O)c2ccno2)N[C@H]2CCCCN(CC(=O)N3CCCC3)C2=O)c1	0 (no)

Is IC50 strictly under 400 nM for the entry Cc1cc2cc(N/C(=N\C(=O)C3CCN(C(=O)c4ccccc4)CC3)N[C@H]3CCCCN(CC(=O)N4CCCC4)C3=O)ccc2o1 ?
1 (yes)

// next record COc1cc(OC)cc(C(=O)/N=C(\Nc2cccc(C)c2)N[C@H]2CCCCN(CC(=O)N3CCCC3)C2=O)c1
0 (no)

// query: Cc1cccc(NC(=N[C@H]2CCCCN(CC(=O)N3CCCC3)C2=O)NC(=O)c2ccccc2)c1
1 (yes)

Same read-out for COc1ccc(NC(=N[C@H]2CCCCN(CC(=O)N3CCCC3)C2=O)NC(=O)c2cccc(F)c2)cc1 ?
1 (yes)

For COc1ccc(NC(=N[C@H]2CCCCN(CC(=O)N3CCCC3)C2=O)NC(=O)c2cc(Cl)cc(Cl)c2)cc1 then?
0 (no)

And COc1ccc(N/C(=N\C(=O)c2ccc(F)cc2)N[C@H]2CCCCN(CC(=O)N3CCCC3)C2=O)cc1 ?
1 (yes)

====

Recorded Activity for the following compounds
Tested on: Plasma
test: Anticoagulant activity in human plasma assessed as concentration required to double prothrombin-based clotting time
Format: functional

smiles text	Activity
COc1ccc(N/C(=N\C(=O)c2ccno2)N[C@H]2CCCCN(CC(=O)N3CCCC3)C2=O)cc1	45 µM
Cc1cc2cc(N/C(=N\C(=O)c3ccccc3)N[C@H]3CCCCN(CC(=O)N4CCCC4)C3=O)ccc2o1	48 µM
Cc1cc2cc(N/C(=N\C(=O)c3ccno3)N[C@H]3CCCCN(CC(=O)N4CCCC4)C3=O)ccc2o1	17.7 µM
COc1ccc(N/C(=N\C(=O)C2CCN(C(=O)c3ccccc3)CC2)N[C@H]2CCCCN(CC(=O)N3CCCC3)C2=O)cc1	48 µM
COc1ccc(N/C(=N\C(=O)c2sc(C)nc2C)N[C@H]2CCCCN(CC(=O)N3CCCC3)C2=O)cc1	>50 µM
Cc1cc2cc(N/C(=N\C(=O)c3sc(C)nc3C)N[C@H]3CCCCN(CC(=O)N4CCCC4)C3=O)ccc2o1	42 µM
Cc1cccc(N/C(=N\C(=O)c2ccno2)N[C@H]2CCCCN(CC(=O)N3CCCC3)C2=O)c1	50 µM
Cc1cccc(N/C(=N\C(=O)C2CCN(C(=O)c3ccccc3)CC2)N[C@H]2CCCCN(CC(=O)N3CCCC3)C2=O)c1	>50 µM
Cc1cc2cc(N/C(=N\C(=O)C3CCN(C(=O)c4ccccc4)CC3)N[C@H]3CCCCN(CC(=O)N4CCCC4)C3=O)ccc2o1	7.5 µM

Fill in: Activity of Cc1cccc(N/C(=N\C(=O)c2sc(C)nc2C)N[C@H]2CCCCN(CC(=O)N3CCCC3)C2=O)c1 is ___
>50 µM
